# Assay Target: KRAS G12S (Homo sapiens, UniProt P01116, G12S)
# Sequence (P01116 1-188 isoform P01116-2 G12S): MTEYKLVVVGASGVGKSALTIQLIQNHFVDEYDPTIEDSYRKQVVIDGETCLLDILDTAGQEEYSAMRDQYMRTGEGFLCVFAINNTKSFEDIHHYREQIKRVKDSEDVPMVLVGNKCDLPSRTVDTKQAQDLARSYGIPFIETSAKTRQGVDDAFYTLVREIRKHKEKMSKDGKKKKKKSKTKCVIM
# Assay Notes: Cellular KRAS:RAF Disruption Assay (NanoBRET), KRAS G12S
# Measurement Context: HEK293 T cells co-expressing RAF1 and KRAS G12S, 24 hours; read-out: RAS::RAF binding via NanoBRET IC50, KRAS G12S
Observed Property: pIC50
// scale note: pIC50 = -log10(conc_M); give the bare number

C#Cc1c(F)ccc2cc(O)cc(-c3ccc4c(N5CC6CCC(C5)N6C(=O)C(F)(F)F)nc(OC[C@]56CCC[C@H]5N(C)CCC6)nc4c3F)c12 [Example 7-7]; 6.37
C#Cc1c(F)ccc2cc(O)cc(-c3ncc4c(N5C6COCC5C6)nc(OC[C@@]56CCCN5C[C@H](F)C6)nc4c3F)c12 [Example 1-35]; 7.96
C#Cc1c(F)ccc2cc(O)cc(-c3ncc4c(N5CCCOCC5)nc(OC[C@]56CCC[C@H]5N(C)CCC6)nc4c3F)c12 [Example 1-3]; 8.40
C#Cc1c(F)ccc2cc(O)cc(-c3ccc4c(N5CC6CCC(C5)N6C(=O)C(F)(F)F)nc(OC[C@@]56CCCN5C[C@H](F)C6)nc4c3F)c12 [Example 7-3]; 6.50
C#Cc1c(F)ccc2cc(O)cc(-c3ncc4c(N5CC6CCC(C5)N6C(=O)C5CC5)nc(OC[C@@]56CCCN5C[C@H](F)C6)nc4c3F)c12 [Example 6-2]; 6.96

For the compound C#Cc1c(F)ccc2cc(O)cc(-c3ccc4c(N5CCCOCC5)nc(OC[C@@]56CCCN5C[C@H](F)C6)nc4c3F)c12 [Example 2-2] , what pIC50 is on record?
8.22

For the compound C#Cc1c(F)ccc2cc(O)cc(-c3ncc4c(N5CCOCC5)nc(OC[C@@]56CCCN5C[C@H](F)C6)nc4c3F)c12 [Example 1-1] , what pIC50 is on record?
7.54

For the compound C#Cc1c(F)ccc2cc(O)cc(-c3ccc4c(N5CCCOCC5)nc(OC[C@]56CCC[C@H]5N(C)CCC6)nc4c3F)c12 [Example 2-3] , what pIC50 is on record?
7.41

The values you see were collected from patent US20240199584A1.
